Cited source for all entries: patent US5177075A

- tgt: Poly(ADP-ribose) synthetase (Bos taurus)
- Construct: Poly (ADP-ribose) synthetase from calf thymus; from tissue; host or cells: calf thymus
- assay text: Inhibition of Poly(ADP-ribose) synthetase
- Assay type: biochemical, calf
- condition details: 30° C., 15 minutes, [3H]NAD; read-out: IC50
Counter-ions that a name gives are not always drawn.
Recorded pIC50 by entry
Kindly note that pIC50 refers to -log10 of the concentration in mol/L and answer with the value alone.

# compound, tgt, test readout, measurement
measured = [
    ("CC(=O)Nc1cccc2c1CCNC2=O", "Poly(ADP-ribose) synthetase (Bos taurus)", "pIC50", 4.25),
    ("CNCCCOc1cccc2c1CCNC2=O [XXXII, hydrochloride]", "Poly(ADP-ribose) synthetase (Bos taurus)", "pIC50", 6.48),
    ("CCc1cccc2c1CCNC2=O [XV, 5-Ethyl-3,4-dihydro-1(2H)-isoquinolinone]", "Poly(ADP-ribose) synthetase (Bos taurus)", "pIC50", 6.00),
    ("O=C1NCCc2c(OCC(O)COc3ccccc3)cccc21 (centres unmarked)", "Poly(ADP-ribose) synthetase (Bos taurus)", "pIC50", 6.19),
]

[Q] Record lookup: for Poly(ADP-ribose) synthetase (Bos taurus), what pIC50 belongs to COc1cccc2c1CCN=C2SC ?
[A] 6.24

[Q] Give Poly(ADP-ribose) synthetase (Bos taurus) pIC50 for CCCCOc1cccc2c1CCNC2=O
[A] 5.22

[Q] Param readout = pIC50; param system = Poly(ADP-ribose) synthetase (Bos taurus); param query = COCC(O)COc1cccc2c1CCNC2=O (centres unmarked) ; response: value
[A] 5.82

[Q] Query for Poly(ADP-ribose) synthetase (Bos taurus): what pIC50 does the record show for O=C1NCCc2c(OC[C@@H](O)CN3CCCCC3)cccc21 ?
[A] 6.57

###

- tgt: Poly(ADP-ribose) synthetase (Bos taurus)
- Construct: Poly (ADP-ribose) synthetase from calf thymus; from tissue; host or cells: calf thymus
- assay text: Inhibition of Poly(ADP-ribose) synthetase
- Type: biochemical, calf
test readout: pIC50
For clarity, pIC50 is expressed as the negative log10 of concentration in mol/L.

# molecular string, tgt, pIC50
data = [
    ("Cc1cccc2c1CCNC2=O", "Poly(ADP-ribose) synthetase (Bos taurus)", 6.80),
]

[Q] What measured pIC50 goes with O=C1NCCc2c(OCCCCN3CCCCC3)cccc21 ?
[A] 6.10

###

- tgt: Poly(ADP-ribose) synthetase (Bos taurus, UniProt P18493)
- Construct: Poly (ADP-ribose) synthetase from calf thymus; from tissue; host or cells: calf thymus
- Sequence (P18493 whole entry): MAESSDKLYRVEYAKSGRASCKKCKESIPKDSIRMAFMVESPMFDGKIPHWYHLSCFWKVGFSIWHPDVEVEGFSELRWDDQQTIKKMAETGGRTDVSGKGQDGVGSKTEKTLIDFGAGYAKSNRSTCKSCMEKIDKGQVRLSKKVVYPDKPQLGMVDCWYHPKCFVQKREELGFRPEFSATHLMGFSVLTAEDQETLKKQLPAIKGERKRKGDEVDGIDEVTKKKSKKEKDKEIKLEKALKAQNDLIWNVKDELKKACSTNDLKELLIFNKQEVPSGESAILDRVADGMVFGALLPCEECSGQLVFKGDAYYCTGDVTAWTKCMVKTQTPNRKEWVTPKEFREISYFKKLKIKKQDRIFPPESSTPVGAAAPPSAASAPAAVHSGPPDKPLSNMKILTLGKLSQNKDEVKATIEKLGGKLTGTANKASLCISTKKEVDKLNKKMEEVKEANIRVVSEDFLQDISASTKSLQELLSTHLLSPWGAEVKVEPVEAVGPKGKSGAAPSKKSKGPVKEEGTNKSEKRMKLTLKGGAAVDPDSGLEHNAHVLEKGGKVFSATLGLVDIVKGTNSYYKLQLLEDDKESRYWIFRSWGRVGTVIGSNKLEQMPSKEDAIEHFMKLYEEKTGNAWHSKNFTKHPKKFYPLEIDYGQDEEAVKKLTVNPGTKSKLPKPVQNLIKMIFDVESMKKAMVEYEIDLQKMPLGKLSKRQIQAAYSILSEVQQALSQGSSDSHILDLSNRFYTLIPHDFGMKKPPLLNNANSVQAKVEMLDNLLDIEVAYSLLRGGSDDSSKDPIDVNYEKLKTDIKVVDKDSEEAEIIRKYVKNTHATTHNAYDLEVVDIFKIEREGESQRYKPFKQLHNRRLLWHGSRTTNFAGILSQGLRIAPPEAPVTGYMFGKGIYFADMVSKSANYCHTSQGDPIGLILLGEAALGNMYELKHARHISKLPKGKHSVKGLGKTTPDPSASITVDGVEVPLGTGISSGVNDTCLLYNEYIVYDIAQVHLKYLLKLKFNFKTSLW
- assay text: Inhibition of Poly(ADP-ribose) synthetase
- Assay type: biochemical, calf
- condition details: 30° C., 15 minutes, [3H]NAD; read-out: IC50
test readout: log10 of IC50 (log10 of the value in nM)
Hey, these are logged values: log10 of IC50, nM being the unit before logging.

# molecule, log10 of IC50
rows = [
    ("O=C1NCCc2c(O)cccc21", 2.00),
    ("CCCOc1cccc2c1CCNC2=O", 2.04),
    ("COc1cccc2c1CCNC2=O", 2.62),
    ("O=C1NCCc2c(OCCc3ccccc3)cccc21", 2.78),
    ("Oc1cccc2c(O)nccc12 [Example I, 1,5-Dihydroxyisoquinoline]", 2.15),
    ("CCOc1cccc2c1CCNC2=O", 3.41),
    ("COc1cccc2c(=O)[nH]c(-c3ccccc3)cc12", 3.33),
    ("O=C1NCCc2c(OCC(O)CN3CCOCC3)cccc21 (centres unmarked)", 3.18),
    ("Nc1cccc2c(=O)[nH]ccc12", 2.38),
    ("O=C1NCCc2c(NCc3ccccc3)cccc21", 3.41),
]

# evaluate next
[Q] Reported log10 of IC50, molecule O=C1NCCc2c(OCCN3CCCCC3)cccc21 : ____
[A] 2.91
